METHOD SUMMARY: qHTS assay for small molecule agonists of the p53 signaling pathway (AID 651631); further: nearly all actives have a fitted effect of over 15% in size
STATED CONDITIONS: HCT-116 p53RE-bla reporter, beta-lactamase FRET ratio, 16 h; series mostly up to 73.3 µM
Results filed as inconclusive are left out. Active and inactive are the calls of the source. The call rests on the fitted dose curve.
Pick one: YES for active, NO for inactive

[
  {
    "COMPOUND": "CCCCC(CC)CN1CN(CC(CC)CCCC)CC(C)(N)C1 (centres undefined)",
    "DISCRETE LABEL": "NO"
  },
  {
    "COMPOUND": "O=S(=O)(O)c1ccc(Nc2nc(Nc3ccc(/C=C/c4ccc(Nc5nc(Nc6ccc(S(=O)(=O)O)cc6)nc(N(CCO)CCO)n5)cc4S(=O)(=O)O)c(S(=O)(=O)O)c3)nc(N(CCO)CCO)n2)cc1",
    "DISCRETE LABEL": "YES"
  },
  {
    "COMPOUND": "C=CC(C)(CCC=C(C)C)OC=O (centres undefined)",
    "DISCRETE LABEL": "NO"
  },
  {
    "COMPOUND": "Oc1c(I)cc(Cl)c2cccnc12",
    "DISCRETE LABEL": "YES"
  },
  {
    "COMPOUND": "CC1=CCC(=C(C)C)CC1",
    "DISCRETE LABEL": "NO"
  }
]

// outcome(item) with item = `O=C(O)CN(CCN(CC(=O)O)CC(=O)O)CC(=O)O` NO

CCCCC(CC)COC(=O)CCCCC(=O)OCc1ccccc1 (centres undefined) ? NO

`CCN(CC)c1ccc2c(-c3ccc(S(=O)(=O)O)cc3S(=O)(=O)[O-])c3ccc(=[N+](CC)CC)cc-3oc2c1` , same question. NO
